The following variants are listed with their measured protein stability index values.
B1: VTI1B (parent)
chain: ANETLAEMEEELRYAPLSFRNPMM

Variants of: B1
Experiment: protein stability index of a GFP-peptide fusion (GPS, HEK-293T) (PSI 1-6); higher = more stable;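 note: lentivirally expressed fusions sorted by FACS into six bins by GFP to DsRed ratio, PSI derived from sequencing read proportions per bin multiplied by bin number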
Conditions: c terminus: a fixed tail appended

changes	protein stability index
M8C	2.94
P22D	4.75
A15V	3.98
A6N	2.75
N21G	3.72
P16G	2
L12A	3.14
L17D	4.33
S18A	2.21
F19Y	2.35
M23G	3.46
E11V	1.65
E7Q	2.31
Y14F	2.06
L17E	4.46
F19M	4.23
M24S	4.41
R20F	2.63
Y14N	2.62
M8A	3.28
R20G	2.65
R20L	2.57
R13A	2.04
R13V	2.64
N21R	3.25
M24P	4.98
T4I	2.4
M24C	2.37
R13C	2.77
A1S	2.49
R13G	1.67
R20S	2.03
N2C	2.13
N21K	3.61
R20A	2.25
E10Y	1.69
P22N	3.58
N21H	3.42
A1M	2.65
E11S	3.02
E10F	2.75
P22F	2.67
N21Y	3.39
A6W	2.05
L12F	3.14
N2R	1.26
A1E	2.72
P16Y	2.36
R13K	1.46
S18L	3.19
A1T	2.36
P22I	3.03
A15Y	2.52
R13Y	1.64
E9N	2.87
A1I	1.91
N2A	2.91
Y14A	2.48
M8R	2.46
L5E	3.32
E11H	2.89
A6Q	2.79
E10N	2.55
N21W	2.21
R20I	1.9
R20H	1.7
L17R	2.93
T4G	2.39
E9I	3.61
F19A	3.94
M23E	2.79
E7S	2.84
M8K	2.4
M8Y	2.73
E10G	1.49
Y14D	3.36
L17N	4.16
L12R	2.59
E7T	2.53
